Measured values drawn from ChEMBL document CHEMBL4819087 for this set.

# Tested on: MDA-MB-468
# ASSAY METHOD TEXT: cells
# EXPERIMENTAL PARAMETERS: Homo sapiens, MDA-MB-468, 24 h
# Description: Antiproliferative activity against human MDA-MB-468 cells assessed as reduction in cell viability incubated for 24 hrs by MTT assay
What pIC50 was measured for each of the following?
# pIC50: negative log10 of molar concentration; output just the value

In: Item `C/C(=N\NC(=O)c1cccc(Br)c1)c1ccc(C(=O)O)cc1` with MDA-MB-468 - pIC50?
Out: 5.26

In: Item `C/C(=N\NC(=O)c1cccc(Br)c1)c1ccc(C(=O)Nc2nc3ccccc3[nH]2)cc1` with MDA-MB-468 - pIC50?
Out: 5.37

In: Item `CO[C@H]1C[C@@H]2CC[C@@H](C)[C@@](O)(O2)C(=O)C(=O)N2CCCC[C@H]2C(=O)O[C@H]([C@H](C)C[C@@H]2CC[C@@H](O)[C@H](OC)C2)CC(=O)[C@H](C)/C=C(\C)[C@@H](O)[C@@H](OC)C(=O)[C@H](C)C[C@H](C)/C=C/C=C/C=C/1C` with MDA-MB-468 - pIC50?
Out: 4.43
